Test system: Moraxella catarrhalis
Experiment: MIC against Gram-negative bacteria: Moraxella catarrhalis
Type: cell-based
Details: 10 h cultivation at 37° C., 5×10^5 CFU/mL, two-fold serial dilution

{"columns": ["substance", "uom", "MIC M. catarrhalis"],
 "data": [
  ["PRT1158 (IQTSCESFPLRNNATCKKCEKDYPCSCISGFTEKNCE; listed as Homo sapiens)", "µg/mL", 50],
  ["PRT1095 (EVQWCGFSPCPHGAQCQPVLQGFECIANAVFNGQSGQ; listed as Homo sapiens)", "µg/mL", 50],
  ["PRT1062 (LQGNCSRLGCQHHCVPTLDGPTCYCNSSFQLQADGKTCK; listed as Homo sapiens)", "µg/mL", 25],
  ["PRT1148 (NINECSSSPCLHGADCEDHINGYVCKCQPGWSGHHCE; listed as Homo sapiens)", "µg/mL", 12.5],
  ["PRT1079 (DQCSLNNGGCSHNCSVAPGEGIVCSCPLGMELGPDNHTCQ; listed as Homo sapiens)", "µg/mL", 12.5],
  ["PRT1145 (KINDCTSIPCMNEGFCQKSAHGFTCICPRGYTGAYCE; listed as Homo sapiens)", "µg/mL", 12.5],
  ["PRT1120 (DEDECASSPCQHGGRCLQRSDPALYGGVQAAFPGAFSFRHAAGFLCHCPPGFEGADCG; listed as Homo sapiens)", "µg/mL", 12.5],
  ["PRT1093 (RKDWCESQPCQSRGRCINLWLSYQCDCHRPYEGPNCL; listed as Homo sapiens)", "µg/mL", 12.5],
  ["PRT1048 (YGKRCVPCKCANHSFCHPSNGTCYCLAGWTGPDCS; listed as Homo sapiens)", "µg/mL", 25],
  ["PRT1067 (KLTSCATNASICGDEARCVRTEKAAYCACRSGFHTVPGQPGCQ; listed as Homo sapiens)", "µg/mL", 12.5],
  ["PRT1166 (DTPEGVRYISSNVCGPHGKCKSQSGGKFTCDCNKGFTGTYCH; listed as Homo sapiens)", "µg/mL", 50],
  ["PRT1154 (DGTACGYNTCRNGGECTVNGTTFSCRCLPDWAGNTCN; listed as Homo sapiens)", "µg/mL", 12.5],
  ["PRT1135 (NLDDCASRPCQRGARCRDRVHDFDCLCPSGYGGKTCE; listed as Homo sapiens)", "µg/mL", 25],
  ["PRT1171 (NTNDCSPHPCYNSGTCVDGDNWYRCECAPGFAGPDCR; listed as Homo sapiens)", "µg/mL", 50],
  ["PRT1179 (DIDECASNPCLNGGHCQNEINRFQCLCPTGFSGNLCQ; listed as Homo sapiens)", "µg/mL", 25],
  ["PRT1157 (DVSEFSLVPCQNGTDCIKISNDVMCICSPIFTDLLCK; listed as Homo sapiens)", "µg/mL", 25],
  ["PRT1098 (DIDNCQSHQCANGATCISHTNGYSCLCFGNFTGKFCR; listed as Homo sapiens)", "µg/mL", 25],
  ["PRT1085 (HARKCNETAKSYCVNGGVCYYIEGINQLSCKCPNGFFGQRCL; listed as Homo sapiens)", "µg/mL", 50],
  ["PRT1096 (QLNVCNSNPCLHGGNCEDIYSSYHCSCPLGWSGKHCE; listed as Homo sapiens)", "µg/mL", 12.5],
  ["PRT1150 (HVPWCAHHLCRNNGTCISDNENLFCECPRLYSGK; listed as Homo sapiens)", "µg/mL", 12.5],
  ["PRT1174 (DLNYCGTHQPCLNGGTCSNTGPDKYQCSCPEGYSGPNCE; listed as Homo sapiens)", "µg/mL", 50],
  ["PRT1193 (DANECEGKPCLNAFSCKNLIGGYYCDCIPGWKGINCH; listed as Homo sapiens)", "µg/mL", 12.5],
  ["PRT1103 (DHDECASSPCQNGAVCQDGIDGYSCFCVPGYQGRHCD; listed as Homo sapiens)", "µg/mL", 25],
  ["PRT1191 (AEHACTSNPCANGGSCHEVPSGFECHCPSGWSGPTCA; listed as Homo sapiens)", "µg/mL", 50],
  ["PRT1063 (ELSPCRINNGGCQDLCLLTHQGHVNCSCRGGRILQDDLTCR; listed as Homo sapiens)", "µg/mL", 50],
  ["PRT1059 (SDSECPLSHDGYCLHDGVCMYIEALDKYACNCVVGYIGERCQ; listed as Homo sapiens)", "µg/mL", 12.5],
  ["PRT1123 (QLTGCQGHTCPLAATCIPIFESGVHSYVCHCPPGTHGPFCG; listed as Homo sapiens)", "µg/mL", 25],
  ["PRT1132 (DEHICTTQSPCQNGGQCMYDGGGEYHCVCLPGFHGRDCE; listed as Homo sapiens)", "µg/mL", 12.5],
  ["PRT1057 (DIDECEMGVPVCPPASSKCINTEGGYVCRCSEGYQGDGIHCL; listed as Homo sapiens)", "µg/mL", 12.5],
  ["PRT1058 (DIDECQLGEHSCGENASCTNTEGGYTCMCAGRLSEPGLICP; listed as Homo sapiens)", "µg/mL", 50],
  ["PRT1141 (EINECSSEPCKNNGTCVDLTNRFFCNCEPEYHGPFCE; listed as Homo sapiens)", "µg/mL", 50]
]}

Cited source: patent US9833497B2
